molecular target: Angiotensin-converting enzyme (Rattus norvegicus, UniProt P47820); experiment: Inhibition of Wistar rat plasma angiotensin 1-converting enzyme using H-hippuryl-His-Leu-OH as substrate after 20 mins by fluorescence assay
Sequence (P47820 whole entry): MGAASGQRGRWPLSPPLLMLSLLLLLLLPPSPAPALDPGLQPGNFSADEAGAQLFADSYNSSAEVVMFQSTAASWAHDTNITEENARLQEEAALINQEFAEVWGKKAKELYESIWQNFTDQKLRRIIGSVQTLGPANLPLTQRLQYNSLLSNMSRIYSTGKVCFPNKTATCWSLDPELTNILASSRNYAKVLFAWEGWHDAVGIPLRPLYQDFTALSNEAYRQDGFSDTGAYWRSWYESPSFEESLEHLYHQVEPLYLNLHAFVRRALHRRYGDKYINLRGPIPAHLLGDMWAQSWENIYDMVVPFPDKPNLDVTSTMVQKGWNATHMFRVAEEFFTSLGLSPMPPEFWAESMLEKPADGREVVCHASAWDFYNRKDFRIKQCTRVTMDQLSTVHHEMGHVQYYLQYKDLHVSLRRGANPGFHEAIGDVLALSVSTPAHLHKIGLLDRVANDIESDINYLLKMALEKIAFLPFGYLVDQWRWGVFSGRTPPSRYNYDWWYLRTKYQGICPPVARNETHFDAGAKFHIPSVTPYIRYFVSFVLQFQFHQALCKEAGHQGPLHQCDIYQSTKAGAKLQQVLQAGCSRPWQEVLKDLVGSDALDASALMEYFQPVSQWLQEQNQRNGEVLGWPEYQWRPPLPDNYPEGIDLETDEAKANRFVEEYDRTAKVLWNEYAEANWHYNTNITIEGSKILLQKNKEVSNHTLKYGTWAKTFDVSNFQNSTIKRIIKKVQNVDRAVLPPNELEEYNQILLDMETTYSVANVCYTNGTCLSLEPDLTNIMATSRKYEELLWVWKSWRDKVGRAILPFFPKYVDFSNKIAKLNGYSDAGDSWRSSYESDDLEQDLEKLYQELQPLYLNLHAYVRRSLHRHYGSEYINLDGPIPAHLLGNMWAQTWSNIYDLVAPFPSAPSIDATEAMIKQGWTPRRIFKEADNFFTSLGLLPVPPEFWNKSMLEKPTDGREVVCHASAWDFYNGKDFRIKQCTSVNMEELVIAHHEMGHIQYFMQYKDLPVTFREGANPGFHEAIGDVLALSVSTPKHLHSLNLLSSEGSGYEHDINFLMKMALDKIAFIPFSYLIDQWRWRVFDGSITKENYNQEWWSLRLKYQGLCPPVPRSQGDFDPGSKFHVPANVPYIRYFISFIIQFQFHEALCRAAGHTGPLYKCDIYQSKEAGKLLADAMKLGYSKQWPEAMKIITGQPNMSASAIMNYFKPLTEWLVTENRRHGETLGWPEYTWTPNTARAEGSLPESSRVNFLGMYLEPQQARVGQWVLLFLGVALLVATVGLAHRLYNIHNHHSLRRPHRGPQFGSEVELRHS
pIC50: −log10 of the molar value.
QUANTITY NAME: pIC50

(A) H-PPPKVSP-NH2
(B) H-WPPPKVSP-NH2
(C) H-WPPPKVS-NH2
Ask | hey, can you rank those substances up there by pIC50? biggest number first please Form field (ranking): labels in requested order.
Reply | B, A, C

====

test: Cytotoxicity against BALB/c mouse peritoneal macrophages assessed as reduction in cell viability after 48 hrs by MTT assay; assay type: cell-based, Peritoneal macrophage; conditions: BALB/c, peritoneal macrophages
Each record here notes measured CC50 at 48 h.
// return numeric value only (unit: µM, not printed)

SUBSTANCE	UNIT ANNOTATION	CC50 at 48 h
H-PPPKVSP-NH2	µM	81.9
H-WPPPKVS-NH2	µM	33600

Ask | Quick one: CC50 at 48 h for H-WPPPKVSP-NH2 ?
Reply | 176
